# Tested on: human lung cancer cell line NCI-H460
Values of GI50 strictly less than 40 nM map to YES, and values of at least 40 nM map to NO.

Would you please look over these solved cases?
Input smiles	Discrete label
CNC(=O)CC1=Cc2nn(Cc3ncc(F)c(OC)c3C)c3nc(N)nc(c23)SC1	NO
CNC(=O)CC1=Cc2nn(Cc3ncc(C)c(OC)c3Cl)c3nc(N)nc(c23)SC1	YES
CNC(=O)CC1=Cc2nn(Cc3ncc(C)c(OC)c3Br)c3nc(N)nc(c23)SC1	YES
COc1ccnc(Cn2nc3c4c(nc(N)nc42)SCC(C(=O)NCC(F)F)=C3)c1Cl	NO
COc1c(C)cnc(Cn2nc3c4c(nc(N)nc42)SCC(CC(=O)NCCF)=C3)c1Cl	YES

Report whether reported GI50 is lower than 40 nM (strictly) for COc1c(C)cnc(Cn2nc3c4c(nc(N)nc42)SCC(CC(N)=O)=C3)c1Br YES

----------
# Assay target: CYP3A4 (Homo sapiens, UniProt P08684)
# Sequence (P08684 whole entry): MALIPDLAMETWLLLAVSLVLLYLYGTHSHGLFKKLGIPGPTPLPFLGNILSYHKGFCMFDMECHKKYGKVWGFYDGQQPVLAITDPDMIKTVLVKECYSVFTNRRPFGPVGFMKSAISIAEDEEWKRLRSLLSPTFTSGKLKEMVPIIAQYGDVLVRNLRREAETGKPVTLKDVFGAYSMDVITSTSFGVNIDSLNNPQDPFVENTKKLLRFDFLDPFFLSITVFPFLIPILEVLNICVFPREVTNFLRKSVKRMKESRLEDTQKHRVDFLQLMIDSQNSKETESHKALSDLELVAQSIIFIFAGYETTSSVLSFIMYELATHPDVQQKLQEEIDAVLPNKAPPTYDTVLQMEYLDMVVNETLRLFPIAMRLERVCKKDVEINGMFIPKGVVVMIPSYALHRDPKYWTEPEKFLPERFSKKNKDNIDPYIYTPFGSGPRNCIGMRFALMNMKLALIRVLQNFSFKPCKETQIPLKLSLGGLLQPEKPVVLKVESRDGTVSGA
# Assay summary: in vitro
# Experimental context: microsomes, pH 7.4
# inhibition at 10 min, 10 μM listing for each entry below
Unit % implied. Number only.

Solved cases below.
Input smiles	Assay target	Parameter measured	Unit info	Numeric result
CNC(=O)CC1=Cc2nn(Cc3ncc(C)c(OC)c3Cl)c3nc(N)nc(c23)SC1	CYP3A4 (Homo sapiens, UniProt P08684)	inhibition at 10 min, 10 μM	%	15
CNC(=O)CC1=Cc2nn(Cc3ncc(F)c(OC)c3C)c3nc(N)nc(c23)SC1	CYP3A4 (Homo sapiens, UniProt P08684)	inhibition at 10 min, 10 μM	%	58
COc1ccnc(Cn2nc3c4c(nc(N)nc42)SCC(C(=O)NCC(F)F)=C3)c1Cl	CYP3A4 (Homo sapiens, UniProt P08684)	inhibition at 10 min, 10 μM	%	-18
COc1c(C)cnc(Cn2nc3c4c(nc(N)nc42)SCC(CC(=O)NCCF)=C3)c1Cl	CYP3A4 (Homo sapiens, UniProt P08684)	inhibition at 10 min, 10 μM	%	66
COc1c(C)cnc(Cn2nc3c4c(nc(N)nc42)SCC(CC(N)=O)=C3)c1Br	CYP3A4 (Homo sapiens, UniProt P08684)	inhibition at 10 min, 10 μM	%	43

# next molecule below
I have this molecule here, CNC(=O)CC1=Cc2nn(Cc3ncc(C)c(OC)c3Br)c3nc(N)nc(c23)SC1 , and I need its recorded inhibition at 10 min, 10 μM. 5
